tested on: NHLF cells; test: RealTime–Glo MT viability assay; settings: 10 µM compound
Counter-ions that a name gives are not always drawn.
OBSERVED_PROPERTY: Effect on viability at 10 µM [% reduction] (% reduction)
Provide the reading as a plain figure in % reduction.

Qu. For the compound Clc1cc(Cl)c(OCC#CI)cc1Cl [Haloprogin] , report Effect on viability at 10 µM [% reduction].
Ans. 61

Qu. For the compound CCCCN(CCCC)CCC(O)c1cc2c(Cl)cc(Cl)cc2c2cc(C(F)(F)F)ccc12 (centres unmarked) [Halofantrine hydrochloride] , report Effect on viability at 10 µM [% reduction].
Ans. 29

Qu. For the compound C[C@]12CC[C@H](O)C[C@H]1CC[C@@H]1[C@@H]2C[C@@H](O)[C@]2(C)[C@@H](C3=CC(=O)OC3)CC[C@]12O [Digoxigenin] , report Effect on viability at 10 µM [% reduction].
Ans. 11

Qu. For the compound C[C@]12CC[C@H](O)C[C@H]1CC[C@@H]1[C@@H]2CC[C@]2(C)[C@@H](C3=CC(=O)OC3)CC[C@]12O [Digitoxigenin] , report Effect on viability at 10 µM [% reduction].
Ans. 22

Qu. For the compound C[C@@H]1C[C@@H]([C@H](O)CC2CC(=O)NC(=O)C2)C(=O)[C@@H](C)C1 [Cycloheximide] , report Effect on viability at 10 µM [% reduction].
Ans. 27

Qu. For the compound CC[C@@]1(O)C(=O)OCc2c1cc1n(c2=O)Cc2cc3ccccc3nc2-1 [Camptothecine (S+)] , report Effect on viability at 10 µM [% reduction].
Ans. 5

Qu. For the compound CC(C)(C)CC(C)(C)c1ccc(OCCOCC[N+](C)(C)Cc2ccccc2)cc1 [Benzethonium chloride] , report Effect on viability at 10 µM [% reduction].
Ans. 72

Qu. For the compound CN[C@@H]1C[C@@H](c2ccc(Cl)c(Cl)c2)c2ccccc21 [Indatraline hydrochloride] , report Effect on viability at 10 µM [% reduction].
Ans. 20

Qu. For the compound C[C@@H](Oc1cc(-c2cnn(C3CCNCC3)c2)cnc1N)c1c(Cl)ccc(F)c1Cl [Crizotinib (PF–02341066), Crizotinib] , report Effect on viability at 10 µM [% reduction].
Ans. 66

Qu. For the compound CC(C)(C)c1nc(-c2cccc(NS(=O)(=O)c3c(F)cccc3F)c2F)c(-c2ccnc(N)n2)s1 [Dabrafenib (GSK2118436), Dabrafenib] , report Effect on viability at 10 µM [% reduction].
Ans. 9

Qu. For the compound Nc1c2ccccc2nc2ccccc12 [Aminacrine] , report Effect on viability at 10 µM [% reduction].
Ans. 2

Qu. For the compound Cc1cc(C#N)cc(C)c1Oc1nc(Nc2ccc(C#N)cc2)nc(N)c1Br [Etravirine (TMC125), Etravirine] , report Effect on viability at 10 µM [% reduction].
Ans. 29

Qu. For the compound C[C@@H]1O[C@@H](O[C@@H]2C=C3CC[C@@H]4[C@H](CC[C@]5(C)[C@@H](c6ccc(=O)oc6)CC[C@]45O)[C@@]3(C)CC2)[C@H](O)[C@H](O)[C@H]1O [Proscillaridin A] , report Effect on viability at 10 µM [% reduction].
Ans. 12

Qu. For the compound C[C@@H]1O[C@@H](O[C@H]2C[C@@H](O)[C@]3(CO)[C@H]4[C@H](O)C[C@]5(C)[C@@H](C6=CC(=O)OC6)CC[C@]5(O)[C@@H]4CC[C@]3(O)C2)[C@H](O)[C@H](O)[C@H]1O [Ouabain] , report Effect on viability at 10 µM [% reduction].
Ans. 15

Reference source for all entries: paper PMC6261607
